Every entry's value here was drawn from paper PMC6277198.

biological target: LCAT G71I (Homo sapiens, UniProt P04180, G95I); construct: hydrolysis of 4-methylumbelliferyl palmitate (MUP) by full-length LCAT; assay: MUP hydrolysis (esterase) assay; conditions: compound titrated from 0.04 to 9.5 μM
Sequence (P04180 25-440 G95I): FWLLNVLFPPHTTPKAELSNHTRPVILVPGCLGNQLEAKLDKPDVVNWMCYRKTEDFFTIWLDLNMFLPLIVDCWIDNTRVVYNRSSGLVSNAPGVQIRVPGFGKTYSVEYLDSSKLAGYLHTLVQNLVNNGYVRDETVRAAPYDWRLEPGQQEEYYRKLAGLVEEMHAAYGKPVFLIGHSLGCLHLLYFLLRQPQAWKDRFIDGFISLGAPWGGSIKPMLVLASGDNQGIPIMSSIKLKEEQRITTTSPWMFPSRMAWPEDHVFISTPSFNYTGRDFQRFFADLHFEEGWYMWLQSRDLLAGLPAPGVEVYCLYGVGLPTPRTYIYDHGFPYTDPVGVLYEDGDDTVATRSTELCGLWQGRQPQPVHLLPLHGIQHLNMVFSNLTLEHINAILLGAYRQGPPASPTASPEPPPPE
pEC50: −log10 of the molar value.
The following compounds are shown together with reported pEC50 values.

Worked cases, answers included:
{"COMPOUND": "N#Cc1cnc(N2CCC(c3n[nH]c4c3C(O)(C(F)(F)F)CC(=O)N4)CC2)cc1C(F)(F)F (stereo not shown)", "pEC50": "< 5.30"}
{"COMPOUND": "O=C1CC(O)(C(F)(F)F)c2c(ncn2C2CCN(c3cnc(C(F)(F)F)cn3)CC2)N1 (stereo not shown)", "pEC50": "< 5.30"}

Problem: For `O=c1cc(C(F)(F)F)c2c(ncn2C2CCN(c3cnc(C(F)(F)F)cn3)CC2)[nH]1` , what is its reported pEC50?
Result: < 5.00

Problem: Endpoint output: pEC50 of O=C1CC(O)(C(F)(F)F)c2c(C3CCN(c4cnc(C(F)(F)F)cn4)CC3)n[nH]c2N1 (stereo not shown) . Value?
Result: < 5.30
